Parameter % Inhibition at 1 µM: see the listing below.
- assay-target: human melanocortin-4 receptor (hMC4-R) (human) (UniProt P32245)
- Sequence (P32245 whole entry): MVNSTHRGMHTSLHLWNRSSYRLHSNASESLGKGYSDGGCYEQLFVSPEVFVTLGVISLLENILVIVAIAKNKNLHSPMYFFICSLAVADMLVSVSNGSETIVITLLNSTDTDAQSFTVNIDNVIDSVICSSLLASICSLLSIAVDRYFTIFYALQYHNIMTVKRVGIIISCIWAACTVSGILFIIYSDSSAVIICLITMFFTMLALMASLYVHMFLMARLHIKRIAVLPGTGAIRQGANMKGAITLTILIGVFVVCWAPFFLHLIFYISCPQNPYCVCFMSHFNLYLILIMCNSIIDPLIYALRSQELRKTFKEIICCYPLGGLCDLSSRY
- method-notes: 125I-NDP-α-MSH competition, hMC4-R membranes
Square brackets hold non-standard residues; d marks the D form. Ends that are not written are not given here. Nle = CCCC[C@H](N)C(=O)O
State just the number; it will be interpreted in %.

Completed entries (count: 3):
[[record]]
binder = "Ac-SYS[Nle]ECHFRWGKPV-NH2 (also: oxorhenium(V) N3S1 chelate at Cys6) [metallopeptide 1-9]"
measured_number = 3

[[record]]
binder = "YV[Nle]CGHFRWDRF-NH2 (also: oxorhenium(V) N3S1 chelate: C4 SG + backbone N of V2, X3, C4, bridge at 4 via Re(V)=O, other end not in the chain) [metallopeptide 4-9]"
measured_number = 4

[[record]]
binder = "YVC[Nle]GHFRWDRF-NH2 (bridge (positions not given here); not fully specified (bridges); printed as Tyr-Val-Cys-Nle-Gly-His-Phe-Arg-Trp-Asp-Arg-Phe-NH2.; also: oxorhenium(V) N3S1 complex) [metallopeptide 4-10]"
measured_number = 2


Next item in the queue.
Sample YV[Nle]GCHFRWDRF-NH2 (also: oxorhenium(V) N3S1 chelate: C5 SG + backbone N of X3, G4, C5, bridge at 5 via Re(V)=O, other end not in the chain) [metallopeptide 4-8] — what was its % Inhibition at 1 µM?
-1
